Target: T1, recombinant human IL6R-his (human, UniProt P08887 20-365)
T1 construct: In house made; the entry includes the C-terminal His tag; also called human IL6R-his protein
T1 sequence: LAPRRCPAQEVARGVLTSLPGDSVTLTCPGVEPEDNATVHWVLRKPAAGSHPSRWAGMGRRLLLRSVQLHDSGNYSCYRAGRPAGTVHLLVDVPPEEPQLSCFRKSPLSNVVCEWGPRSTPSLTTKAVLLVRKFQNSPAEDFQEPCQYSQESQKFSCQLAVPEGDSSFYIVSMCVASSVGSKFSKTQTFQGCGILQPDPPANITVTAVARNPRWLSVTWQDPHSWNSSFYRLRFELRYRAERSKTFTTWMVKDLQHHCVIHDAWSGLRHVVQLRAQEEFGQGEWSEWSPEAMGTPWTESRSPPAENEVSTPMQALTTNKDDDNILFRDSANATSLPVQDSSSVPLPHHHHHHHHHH
Test: SPR Biacore; antibody from diluted cell supernatant captured by anti-human IgG on CM5, human IL6R in flow
quantity_kind: koff (s⁻¹)
Supply the numeric figure in s⁻¹, leaving out any unit text.

What value of koff has been recorded for this entry: humanized antibody hu1H7-V1-2 (antibody, human IgG1, kappa, V domains shown, Human IgG1 / kappa; also called hu1H7-Vl-2) VH: QVQLVQSGAEVKKPGASVKVSCKASGYTFTNYWMHWVKQAPGQGLDWIGEINPTNGRTNYNENFKSKATLTVDKSTSTAYMELSSLRSEDTAVYYCARLNTHYVFDSWGQGTLVTVSS VL: EIVLTQSPGTLSLSPGERATLTCSVSSSISSNYLHWYQQKPGFSPRLLISRTSTLASGIPARFSGSGSGTSYSLTISRMQSEDFAVYYCQQGSGIPFTFGQGTKLEIKR
0.000165
